Values were extracted from paper PMC2852842.

test system: Sphaerechinus granularis eggs; assay: Inhibition of sea urchin egg division; type: cell-based; details: Sphaerechinus granularis, 85 min, egg division, 85 minutes after fertilization; read-out: IC50 S. granularis
MEASUREMENT KIND: IC50

Query :: Provide one value: measured IC50 of COc1ccc(O)c([C@@H]2C=C(C)CC[C@@H]2C(C)(C)OC)c1 (relative stereo)
Result :: > 25 µM

###

test system: PC3 androgen-resistant prostate carcinoma cells; experiment: Resazurin reduction test (RRT) cytotoxicity; format: cell-based; details: Homo sapiens, 48 h
MEASUREMENT KIND: IC50

Query :: Kindly indicate its recorded IC50. Item: Cc1ccc2c(c1)-c1cc(O)ccc1OC2(C)C [4a, didehydroconicol]
Result :: > 100 µM

###

tested on: PA1 ovary teratocarcinoma cells; test: Resazurin reduction test (RRT) cytotoxicity; type: cell-based, human; details: Homo sapiens; PA1, 48 hour exposure, 10% serum, RRT; read-out: IC50
pIC50: −log10 of the molar value.
MEASUREMENT KIND: pIC50

Query :: Please report pIC50 for the following molecule: COC(C)(C)[C@H]1CCC(C)=C[C@H]1c1cc(O)ccc1O
Result :: < 4.00

###

Tested on: Paracentrotus lividus eggs
Assay: Inhibition of sea urchin egg division
Format: cell-based
Settings: Paracentrotus lividus, 85 min, read-out: IC50 P. lividus, egg division, 85 minutes after fertilization
Method: For cytotoxic assays on sea urchins, meroterpenes were dissolved in an egg suspension (described in the experimental section), and their ability to inhibit 50% of cell division (IC50) was estimated. Each experiment was carried out in triplicate and an average taken. For antiproliferative assays on sea urchin eggs, we used a previously described method.
MEASUREMENT KIND: IC50

Query :: Indicate its recorded IC50; the compound in question is COc1ccc2c(c1)[C@H]1C=C(C)CC[C@H]1C(C)(C)O2 (relative stereo)
Result :: > 25 µM

Query :: Find the measured IC50 of COc1ccc2c(c1)-c1cc(C)ccc1C(C)(C)O2 [4b, O-methyldidehydroconicol] and report it.
Result :: > 25 µM

Query :: Fill in IC50 for record Cc1ccc2c(c1)-c1cc(O)ccc1OC2(C)C [4a, didehydroconicol]
Result :: 11.3 µM
